Where these numbers come from: patent USRE48335E1

Minimum inhibitory concentration (MIC), Pa FADDI-PA022 reference
tested on: Pseudomonas aeruginosa; settings: Pseudomonas aeruginosa FADDI-PA022; broth microdilution in CAMHB; TFA salt
Positions of bridges follow the written chain, without caps; N, C: chain ends. Non-standard residues stand in square brackets, D forms with d. Residues, ends and D or L forms follow the SMILES beside them. *: point of attachment. Benzoyl(4-(4-Cl-Ph)) = O=C(c1ccc(-c2ccc(Cl)cc2)cc1)*; Benzoyl(3-Ph) = O=C(c1cccc(-c2ccccc2)c1)*; Benzoyl(4-Ph) = O=C(c1ccc(-c2ccccc2)cc1)*; Hydrocinnamoyl = O=C(CCc1ccccc1)*; X41 = O=S(=O)(c1ccc(Cl)cc1Cl)*; X3 = O=C(c1ccc(Cl)cc1Cl)*; Orn = NCCC[C@H](N)C(=O)O; Dab = NCC[C@H](N)C(=O)O; Abu = CC[C@H](N)C(=O)O; Dap = NC[C@H](N)C(=O)O
Could you give me the number in µg/mL? Just the number is fine.

Briefly, Minimum inhibitory concentration (MIC), Pa FADDI-PA022 measured for CC[C@@H]1NC(=O)[C@@H](CC(C)C)NC(=O)[C@H](CCN)NC(=O)[C@@H](NC(=O)[C@H](CCCN)NC(=O)[C@@H](NC(=O)[C@H](CCN)NC(=O)c2ccc(Cl)cc2Cl)[C@@H](C)O)CCNC(=O)[C@H]([C@@H](C)O)NC(=O)[C@H](CCN)NC(=O)[C@H](CCN)NC1=O [Compound 147] (X3-[Dab]T[Orn][Dab][Dab][dL][Abu][Dab][Dab]T; lactam 4-C) : 1

Briefly, Minimum inhibitory concentration (MIC), Pa FADDI-PA022 measured for CC[C@@H]1NC(=O)[C@@H](CC(C)C)NC(=O)[C@H](CCN)NC(=O)[C@@H](NC(=O)[C@H](CN)NC(=O)[C@@H](NC(=O)[C@H](CCN)NC(=O)c2ccc(-c3ccccc3)cc2)[C@@H](C)O)CCNC(=O)[C@H]([C@@H](C)O)NC(=O)[C@H](CCN)NC(=O)[C@H](CCN)NC1=O [Compound 142] ({Benzoyl(4-Ph)}-[Dab]T[Dap][Dab][Dab][dL][Abu][Dab][Dab]T; lactam 4-C) : 1

Briefly, Minimum inhibitory concentration (MIC), Pa FADDI-PA022 measured for CC[C@@H]1NC(=O)[C@@H](CC(C)C)NC(=O)[C@H](CCN)NC(=O)[C@@H](NC(=O)[C@H](CN)NC(=O)[C@@H](NC(=O)[C@H](CCN)NC(=O)CCc2ccccc2)[C@@H](C)O)CCNC(=O)[C@H]([C@@H](C)O)NC(=O)[C@H](CCN)NC(=O)[C@H](CCN)NC1=O [Compound 145] (Hydrocinnamoyl-[Dab]T[Dap][Dab][Dab][dL][Abu][Dab][Dab]T; lactam 4-C) : 0.5

Briefly, Minimum inhibitory concentration (MIC), Pa FADDI-PA022 measured for CC[C@@H]1NC(=O)[C@@H](CC(C)C)NC(=O)[C@H](CCN)NC(=O)[C@@H](NC(=O)[C@H](CN)NC(=O)[C@@H](NC(=O)[C@H](CCN)NC(=O)c2cccc(-c3ccccc3)c2)[C@@H](C)O)CCNC(=O)[C@H]([C@@H](C)O)NC(=O)[C@H](CCN)NC(=O)[C@H](CCN)NC1=O [Compound 138] ({Benzoyl(3-Ph)}-[Dab]T[Dap][Dab][Dab][dL][Abu][Dab][Dab]T; lactam 4-C) : 2

Briefly, Minimum inhibitory concentration (MIC), Pa FADDI-PA022 measured for CC(C)C[C@H]1NC(=O)[C@H](CCN)NC(=O)[C@@H](NC(=O)[C@H](CN)NC(=O)[C@@H](NC(=O)[C@H](CCN)NC(=O)c2ccc(-c3ccc(Cl)cc3)cc2)[C@@H](C)O)CCNC(=O)[C@H]([C@@H](C)O)NC(=O)[C@H](CCN)NC(=O)[C@H](CCN)NC(=O)[C@H](C)NC1=O [Compound 144] ({Benzoyl(4-(4-Cl-Ph))}-[Dab]T[Dap][Dab][Dab][dL]A[Dab][Dab]T; lactam 4-C) : 2

Briefly, Minimum inhibitory concentration (MIC), Pa FADDI-PA022 measured for CC[C@@H]1NC(=O)[C@@H](CC(C)C)NC(=O)[C@H](CCN)NC(=O)[C@@H](NC(=O)[C@H](CN)NC(=O)[C@@H](NC(=O)[C@H](CCN)NS(=O)(=O)c2ccc(Cl)cc2Cl)[C@@H](C)O)CCNC(=O)[C@H]([C@@H](C)O)NC(=O)[C@H](CCN)NC(=O)[C@H](CCN)NC1=O [Compound 148] (X41-[Dab]T[Dap][Dab][Dab][dL][Abu][Dab][Dab]T; lactam 4-C) : 1
